Recorded inhibition at 1 µM for the following compounds
- assay.system: FAAH (Mus musculus)
- Construct: Proteomes (mouse brain membrane fraction or cell lysates); from tissue; host or cells: mouse brain membrane fraction (or cell lysates, not specified)
- Sequence (O08914 whole entry): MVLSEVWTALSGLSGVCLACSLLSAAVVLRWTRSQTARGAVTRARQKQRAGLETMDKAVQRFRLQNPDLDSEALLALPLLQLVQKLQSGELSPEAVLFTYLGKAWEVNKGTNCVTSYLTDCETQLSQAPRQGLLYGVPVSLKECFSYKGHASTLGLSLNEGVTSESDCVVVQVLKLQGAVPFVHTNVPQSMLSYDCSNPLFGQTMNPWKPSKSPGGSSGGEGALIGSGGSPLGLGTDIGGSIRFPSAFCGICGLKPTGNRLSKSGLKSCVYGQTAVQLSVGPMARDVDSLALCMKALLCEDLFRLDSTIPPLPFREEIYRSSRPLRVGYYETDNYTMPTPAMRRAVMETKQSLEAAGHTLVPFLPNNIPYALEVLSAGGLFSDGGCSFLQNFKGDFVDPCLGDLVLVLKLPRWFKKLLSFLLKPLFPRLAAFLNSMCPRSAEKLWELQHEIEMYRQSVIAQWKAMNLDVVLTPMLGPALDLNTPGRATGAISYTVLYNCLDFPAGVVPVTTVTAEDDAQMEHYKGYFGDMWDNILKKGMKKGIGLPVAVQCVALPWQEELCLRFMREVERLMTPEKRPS
- protocol.summary: In vitro competitive activity-based protein profiling (gel-based, FP-Rh or HT-01 probe)
- Format: biochemical
- recorded.conditions: 1 μM inhibitor; read-out: % Inhibition at 1 μM, B = FAAH

compound: Cc1cnn(C(=O)N2CCN(C(=O)OC(C)(C)C)CC2)c1 [Example 5]
inhibition at 1 µM: < 25%

Request: inhibition at 1 µM, test system FAAH (Mus musculus), entry CCN(Cc1cccc(C)c1)C(=O)n1cc(Cl)cn1 [Example 135]
> 75%

# iterate: CN1CCCN(C(=O)n2cc(C(F)(F)F)cn2)CC1 [Example 156]
< 25%

Follow-up entry: O=C(c1ccccc1)N1CCCN(C(=O)n2cc(C(F)(F)F)cn2)CC1 [Example 158]
> 75%

Now the compound O=C(c1cnn(C(=O)N2CCN(C(c3ccc(Cl)cc3)c3ccc(Cl)cc3)CC2)c1)N1CCC1 [Example 68]
< 25%
